- test.system: T1, VISTA-His ECD (Sino Biological 13482-H08H) (human, UniProt Q9H7M9 33-194)
- T1 construct: Bought protein; also called VISTA-ECD; not shown: His tag
- assay.summary: BLI (Octet K2), ratio of the pH 6.0 fold change to the pH 7.4 fold change
reported.endpoint: ΔKdis (pH 6.0)/ΔKdis (pH 7.4)
Could you keep your reply to the number by itself?

Reference set (2 entries):
{"binder": "Antibody No. 474.1 with VL Y31H, VH Y52H (second of two rows so labelled, the 40th table r13) (antibody, human IgG1, V domains shown) VH: QVQLQESGPGLVKPSETLSLTCTVSGGSISSYYWSWIRQPPGKGLEWIGYIHYSGSTNYNPSLKSRVTISVDTSKSQFSLKLSSVTAADTAVYYCARDIPAFAFDIWGQGTMVIVSS VL: EIVLTQSPATLSLSPGERATLSCRASQSVSHYLAWYQQKPGQAPRLLIYDAFNRATGIPARFSGSGSGTDFTLTISSLEPEDFAVYYCQQRINWPLTFGGGTKVEIK", "ΔKdis (pH 6.0)/ΔKdis (pH 7.4)": 3.8}
{"binder": "Antibody No. 474.1 with VH Y32H, VH Y33H (antibody, V domains shown) VH: QVQLQESGPGLVKPSETLSLTCTVSGGSISSHHWSWIRQPPGKGLEWIGYIYYSGSTNYNPSLKSRVTISVDTSKSQFSLKLSSVTAADTAVYYCARDIPAFAFDIWGQGTMVIVSS VL: EIVLTQSPATLSLSPGERATLSCRASQSVSYYLAWYQQKPGQAPRLLIYDAFNRATGIPARFSGSGSGTDFTLTISSLEPEDFAVYYCQQRINWPLTFGGGTKVEIK", "ΔKdis (pH 6.0)/ΔKdis (pH 7.4)": 6.9}

Proceed to the following item.
Noted for Antibody No. 474.1 with VL Y32H, VH Y32H, VH Y52H (antibody, V domains shown) VH: QVQLQESGPGLVKPSETLSLTCTVSGGSISSHYWSWIRQPPGKGLEWIGYIHYSGSTNYNPSLKSRVTISVDTSKSQFSLKLSSVTAADTAVYYCARDIPAFAFDIWGQGTMVIVSS VL: EIVLTQSPATLSLSPGERATLSCRASQSVSYHLAWYQQKPGQAPRLLIYDAFNRATGIPARFSGSGSGTDFTLTISSLEPEDFAVYYCQQRINWPLTFGGGTKVEIK : its ΔKdis (pH 6.0)/ΔKdis (pH 7.4) reads 1.8
